// provenance: paper PMC11784839

molecular target: tau (Homo sapiens); test: MCE Phenols Library screening, tau biosensor cell seeding assay (AvZ); format: cell-based; details: Z score, replicate 2
Below, each entry is listed alongside its reported Z Repl 2.
Format: numeric value only, no unit, no commentary.

As a guide, the following entries are already answered.
>  <COMPOUND>
O=C(O)Cc1c[nH]c2ccc(O)cc12 [5-Hydroxyindole-3-acetic acid]

>  <Z Repl 2>
-0.771

$$$$
>  <COMPOUND>
Oc1cc(O)c2c(c1)O[C@H](c1cc(O)c(O)c(O)c1)[C@@H](O)C2 [(+)-Gallocatechin]

>  <Z Repl 2>
-1.082

$$$$
>  <COMPOUND>
COc1cc2c(cc1O)CC[n+]1cc3c4c(ccc3cc1-2)OCO4 [Groenlandicine]

>  <Z Repl 2>
-0.208

$$$$
>  <COMPOUND>
COc1ccc(-c2oc3c(CC=C(C)C)c(O[C@@H]4O[C@H](CO)[C@@H](O)[C@H](O)[C@H]4O)cc(O)c3c(=O)c2O[C@@H]2O[C@@H](C)[C@H](O)[C@@H](O)[C@H]2O)cc1 [Icariin]

>  <Z Repl 2>
0.569

$$$$
>  <COMPOUND>
O=C(OC[C@H]1O[C@@H](OC(=O)c2cc(O)c(O)c(OC(=O)c3cc(O)c(O)c(O)c3)c2)[C@H](OC(=O)c2cc(O)c(O)c(OC(=O)c3cc(O)c(O)c(O)c3)c2)[C@@H](OC(=O)c2cc(O)c(O)c(OC(=O)c3cc(O)c(O)c(O)c3)c2)[C@@H]1OC(=O)c1cc(O)c(O)c(OC(=O)c2cc(O)c(O)c(O)c2)c1)c1cc(O)c(O)c(OC(=O)c2cc(O)c(O)c(O)c2)c1 [Tannic acid]

>  <Z Repl 2>
-1.136

$$$$

Problem: What Z Repl 2 value was documented for this compound, COc1cc(/C=C/C(=O)OCC[N+](C)(C)C)cc(OC)c1O [Sinapine] ?
Result: -0.305

---

biological target: tau (Homo sapiens); assay: MCE Phenols Library screening, tau biosensor cell seeding assay (AvZ); assay type: cell-based; settings: puncta, replicate 1
ASSAY READOUT: raw data 1
# answer = number (no unit)

>  <COMPOUND>
COc1cc(/C=C/c2cc(O)cc(O)c2)ccc1O

>  <raw data 1>
41947.4

$$$$
>  <COMPOUND>
COC(=O)c1c2c(c3ccccc3c1O)OC(C)(C)C=C2

>  <raw data 1>
38015.5

$$$$
>  <COMPOUND>
O=C1C[C@@H](c2ccc(O)cc2)Oc2cc(O[C@@H]3O[C@H](CO)[C@@H](O)[C@H](O)[C@H]3O)ccc21

>  <raw data 1>
22080.4

$$$$
>  <COMPOUND>
O=C(C=Cc1ccc(O)c(O)c1)OC1CC(OC(=O)C=Cc2ccc(O)c(O)c2)(C(=O)O)CC(O)C1O (stereo not drawn)

>  <raw data 1>
13417.7

$$$$

Problem: raw data 1 for COc1c2ccoc2c(O)c2oc(=O)ccc12 [8-Hydroxybergapten] ?
Result: 25106.7

---

biological target: tau (Homo sapiens, UniProt P10636); assay: MCE Phenols Library screening, tau biosensor cell seeding assay (AvZ); assay type: cell-based; conditions: average of raw data 1 and 2
Sequence (P10636 623-695 limits assumed): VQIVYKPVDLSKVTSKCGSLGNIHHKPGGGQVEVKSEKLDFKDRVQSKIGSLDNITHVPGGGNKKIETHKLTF
Output True for av puncta not less than 20000; output False otherwise.

Look over these answered cases.
>  <MOLECULE>
Oc1ccc(OC2CCCCO2)cc1 (centres unmarked) [Deoxyarbutin]

>  <CLASS>
True

$$$$
>  <MOLECULE>
COc1cc(C)ccc1O [Creosol]

>  <CLASS>
True

$$$$

Problem: Decide: av puncta of COc1cc(O)c2c(=O)c(OC)c(-c3ccc(OC)c(O)c3)oc2c1 [Ayanin] >= 20000?
Result: False

Problem: In plain terms: is recorded av puncta at least 20000 for COc1ccc(-c2cc(=O)c3c(O)c(OC)c(O[C@@H]4O[C@H](CO[C@@H]5O[C@@H](C)[C@H](O)[C@@H](O)[C@H]5O)[C@@H](O)[C@H](O)[C@H]4O)cc3o2)cc1 [Pectolinarin] ?
Result: True

Problem: Threshold query (av puncta >= 20000) on O=C1N[C@@H]2C(=C[C@H](O)[C@@H](O)[C@H]2O)c2cc3c(c(O)c21)OCO3 [Narciclasine]
Result: False

Problem: Exam item: decide whether the reported av puncta for Oc1c(Br)cccc1Br [2,6-Dibromophenol] is at least 20000.
Result: False

Problem: Determine whether measured av puncta meets or exceeds 20000 for C[C@@H]1O[C@@H](OC[C@H]2O[C@@H](OCCc3ccc(O)c(O)c3)[C@H](O)[C@@H](O)[C@@H]2OC(=O)/C=C/c2ccc(O)c(O)c2)[C@H](O)[C@H](O)[C@H]1O [Forsythiaside A]
Result: False

---

target: tau (Homo sapiens, UniProt P10636); assay: MCE Phenols Library screening, tau biosensor cell seeding assay (AvZ); type: cell-based; details: Z score, replicate 2
Each entry falls into one class according to its Z Repl 2; the ranges are lower band (below -0.7), central band (-0.7 to below 0.1), upper band (0.1 or more)

Problem: Could you tell me which band O=c1cc(-c2ccccc2)oc2c(O)c(O)cc(O)c12 [Norwogonin] belongs to?
Result: central band

Problem: Band of O=c1c(O)c(-c2ccc(O)c(O)c2)oc2cc(O)c(O)c(O)c12 [Quercetagetin] ?
Result: lower band

Problem: Category lookup for the molecule COc1cc(CCO)ccc1O [Homovanillyl alcohol]
Result: upper band

Problem: Textbook exercise: identify the category of the molecule given here, COc1cc(O)c2c(=O)c(O[C@@H]3O[C@H](CO)[C@@H](O)[C@H](O)[C@H]3O)c(-c3ccc(O[C@@H]4O[C@H](CO)[C@@H](O)[C@H](O)[C@H]4O)cc3)oc2c1 [Complanatuside] , according to its measured value.
Result: central band

Problem: Field: class (Z Repl 2) — entry: C[C@@H]1O[C@@H](Oc2cc(O)c3c(=O)c(O)c(-c4ccc(O)cc4)oc3c2O)[C@H](O)[C@H](O)[C@H]1O [Rhodionin]
Result: lower band

Problem: Place this molecule in its band: COc1cc2cc(Oc3ccc4ccc(=O)oc4c3)c(=O)oc2cc1O [Daphnoretin]
Result: central band

Problem: Which bin should I file Cc1cc(O)cc(O)c1 [Orcinol] under?
Result: central band

Problem: Which category does the recorded Z Repl 2 put Oc1ccc2c(c1)OCO2 [Sesamol] in?
Result: lower band

Problem: For the record Oc1ccc2c(c1)OC[C@H]1c3cc4c(cc3O[C@@H]21)OCO4 [(-?)?-Maackiain] , report the class its Z Repl 2 corresponds to.
Result: upper band

Problem: Just checking, what class would you give COc1ccc(C(C)=O)c(O)c1 [Paeonol] here?
Result: upper band

Problem: Sort CC(=O)Cc1cc(=O)c2c(C)cc(O)c([C@@H]3O[C@H](CO)[C@@H](O)[C@H](O)[C@H]3O)c2o1 [Aloesin] into one of the categories.
Result: central band

---

Quick reference: raw data 2 of the listed items.
biological target: tau (Homo sapiens, UniProt P10636); assay: MCE Phenols Library screening, tau biosensor cell seeding assay (AvZ); type: cell-based; conditions: puncta, replicate 2
I only need the number, thanks.

>  <COMPOUND>
COc1ccc(CC(=O)c2ccc(O)cc2O)cc1

>  <MEASURED TARGET>
tau (Homo sapiens, UniProt P10636)

>  <raw data 2>
16588.6

$$$$
>  <COMPOUND>
O=C(OC[C@H]1O[C@@H](OC(=O)c2cc(O)c(O)c(OC(=O)c3cc(O)c(O)c(O)c3)c2)[C@H](OC(=O)c2cc(O)c(O)c(OC(=O)c3cc(O)c(O)c(O)c3)c2)[C@@H](OC(=O)c2cc(O)c(O)c(OC(=O)c3cc(O)c(O)c(O)c3)c2)[C@@H]1OC(=O)c1cc(O)c(O)c(OC(=O)c2cc(O)c(O)c(O)c2)c1)c1cc(O)c(O)c(OC(=O)c2cc(O)c(O)c(O)c2)c1

>  <MEASURED TARGET>
tau (Homo sapiens, UniProt P10636)

>  <raw data 2>
629.309

$$$$

Problem: Fill in the blank: the reported raw data 2 of COc1ccc(/C=C/C(=O)C(C)(C)C(=O)/C=C/c2ccc(OC)c(OC)c2)cc1OC is ____.
Result: 2696.76

Problem: Can you look up the measured raw data 2 of Oc1ccc2[nH]ccc2c1 [5-Hydroxyindole] for me?
Result: 6901.21

Problem: Bench note: what raw data 2 did C/C=C/c1cc(OC)c2c(c1)C(C)C(c1ccc(O)c(OC)c1)O2 (stereo not shown) [Dehydrodiisoeugenol] show?
Result: 17242.2

Problem: Recorded raw data 2 of COc1cc(CCO)ccc1O , please.
Result: 14215.2

Problem: Entry under review: COc1cc(C(=O)OCCCCNC(=N)N)cc(OC)c1O . Reported raw data 2?
Result: 26125.3

---

Measured raw data 1, listed per entry for reference.
target: tau (Homo sapiens); assay: MCE Phenols Library screening, tau biosensor cell seeding assay (AvZ); type: cell-based; settings: puncta, replicate 1
Reply with just the number.

Below, 2 molecules whose answers are already recorded.
>  <MOLECULE>
COc1cc(O)c2c(c1)oc(=O)c1c3cc(O)c(O)cc3oc21 [Wedelolactone]

>  <MEASURED>
16120.2

$$$$
>  <MOLECULE>
Oc1ccc2[nH]ccc2c1 [5-Hydroxyindole]

>  <MEASURED>
18144.2

$$$$

Problem: Please tell me: raw data 1 of Oc1cc(O)c2c(c1)O[C@H](c1ccc(O)c(O)c1)[C@H](O)[C@H]2c1c(O)cc(O)c2c1O[C@H](c1ccc(O)c(O)c1)[C@H](O)[C@H]2c1c(O)cc(O)c2c1O[C@H](c1ccc(O)c(O)c1)[C@H](O)C2 [Procyanidin C1] , system tau (Homo sapiens)?
Result: 35473.6

Problem: Fill in the recorded raw data 1 for this molecule, with tau (Homo sapiens) as test system: COc1ccc(/C=C/c2cc(O)cc(O[C@@H]3O[C@H](CO)[C@@H](O)[C@H](O)[C@H]3O)c2)cc1 [Desoxyrhaponticin]
Result: 36082.1

Problem: # value lookup — system tau (Homo sapiens), readout raw data 1, item COc1ccc(-c2oc3c(CC=C(C)C)c(O)cc(O)c3c(=O)c2O)cc1 [Icaritin]
Result: 31392.8

Problem: Please state recorded raw data 1 (tested on tau (Homo sapiens)) of O=C(O)Cc1cc(O)ccc1O [Homogentisic acid]
Result: 10913.7

Problem: Hello, I am looking for reported raw data 1 with tau (Homo sapiens) for COc1cc(/C=C/C(=O)O[C@H]2C[C@@](O)(C(=O)O)C[C@H](O)[C@@H]2O)ccc1O (stereo in doubt) [3-Feruloylquinic acid] . Could you help?
Result: 26861
